System: HSkMC (human skeletal muscle cells)
assay.name: cytotoxicity call (relative viability < 0.9)
experimental.setup: 10 µM
Among all 39,000 compounds or so, about 1,500 (3.8%) were called active. Many of the other results were omitted from the sample, so actives are more common in it than they were.
quantity.kind: cytotoxicity call

C[C@H](CO)N1C[C@H](C)[C@H](CN(C)Cc2ccc(C(F)(F)F)cc2)OCCCC[C@H](C)Oc2ccc(NC(=O)NC3CCCCC3)cc2C1=O ... inactive
C[C@@H]1CN([C@H](C)CO)C(=O)c2cc(NC(=O)NC3CCCCC3)ccc2O[C@@H](C)CCCCO[C@H]1CN(C)Cc1ccc(C(F)(F)F)cc1 ... inactive
C[C@@H]1CN([C@@H](C)CO)C(=O)c2cc(NC(=O)NC3CCCCC3)ccc2O[C@@H](C)CCCCO[C@@H]1CN(C)Cc1ccc(C(F)(F)F)cc1 ... inactive
